Each recorded value in this set is attributed to ChEMBL document CHEMBL1770120.

- test: AUC (0 to infinity) in Sprague-Dawley rat at 5 mg/kg, iv by LC-MS/MS analysis
- Format: ADME, organism-based
- Parameters: time infinity, dose 5 mg/kg, route intravenous
- condition_label: plasma
Exercise: for every item that follows, state its recorded AUC(0-inf).
Express the result in ng·h/mL but write the number alone.

[in] Give recorded AUC(0-inf). CC(=O)O[C@@]12CO[C@@H]1C[C@H](O)[C@@]1(C)C(=O)[C@H](O)C3=C(C)[C@@H](OC(=O)[C@H](O)[C@@H](NC(=O)OC(C)(C)CF)c4ccccc4)C[C@@](O)([C@@H](OC(=O)c4ccccc4)[C@H]21)C3(C)C
[out] 994

[in] Quickly give me recorded AUC(0-inf) for CC(=O)O[C@@]12CO[C@@H]1C[C@H](O)[C@@]1(C)C(=O)[C@H](O)C3=C(C)[C@@H](OC(=O)[C@H](O)[C@@H](NC(=O)OC(C)(C)CF)c4ccc(F)cc4)C[C@@](O)([C@@H](OC(=O)c4ccccc4)[C@H]21)C3(C)C
[out] 1660

[in] Identify AUC(0-inf) associated with the compound CC(=O)O[C@@]12CO[C@@H]1C[C@H](O)[C@@]1(C)C(=O)[C@H](O)C3=C(C)[C@@H](OC(=O)[C@H](O)[C@@H](NC(=O)OC(C)(C)CF)c4ccccc4)C[C@@](O)([C@@H](OC(=O)c4cccc(F)c4)[C@H]21)C3(C)C
[out] 2240

[in] Please give measured AUC(0-inf) of the following entry: CC(=O)O[C@@]12CO[C@@H]1C[C@H](O)[C@@]1(C)C(=O)[C@H](O)C3=C(C)[C@@H](OC(=O)[C@H](O)[C@@H](NC(=O)OC(C)(C)C(F)(F)F)c4ccccc4)C[C@@](O)([C@@H](OC(=O)c4ccccc4)[C@H]21)C3(C)C
[out] 3960

[in] Given CC(=O)O[C@@]12CO[C@@H]1C[C@H](O)[C@@]1(C)C(=O)[C@H](O)C3=C(C)[C@@H](OC(=O)[C@H](O)[C@@H](NC(=O)OC(C)(C)C(F)F)c4ccc(F)cc4)C[C@@](O)([C@@H](OC(=O)c4ccccc4)[C@H]21)C3(C)C , respond with its AUC(0-inf).
[out] 3360

[in] Give the value of AUC(0-inf) reported for the following: CC(=O)O[C@@]12CO[C@@H]1C[C@H](O)[C@@]1(C)C(=O)[C@H](O)C3=C(C)[C@@H](OC(=O)[C@H](O)[C@@H](NC(=O)OC(C)(C)C)c4ccccc4)C[C@@](O)([C@@H](OC(=O)c4ccccc4)[C@H]21)C3(C)C.O.O.O [DOCETAXEL]
[out] 667

[in] For CC(=O)O[C@@]12CO[C@@H]1C[C@H](O)[C@@]1(C)C(=O)[C@H](O)C3=C(C)[C@@H](OC(=O)[C@H](O)[C@@H](NC(=O)OC(C)(C)C(F)F)c4ccccc4)C[C@@](O)([C@@H](OC(=O)c4ccccc4)[C@H]21)C3(C)C , write its AUC(0-inf).
[out] 2930

[in] Query AUC(0-inf) for CC(=O)O[C@@]12CO[C@@H]1C[C@H](O)[C@@]1(C)C(=O)[C@H](O)C3=C(C)[C@@H](OC(=O)[C@H](O)[C@@H](NC(=O)OC(C)(C)C(F)(F)F)c4ccc(F)cc4)C[C@@](O)([C@@H](OC(=O)c4ccccc4)[C@H]21)C3(C)C
[out] 3980

[in] Determine from records and report AUC(0-inf) for CC(=O)O[C@@]12CO[C@@H]1C[C@H](O)[C@@]1(C)C(=O)[C@H](O)C3=C(C)[C@@H](OC(=O)[C@H](O)[C@@H](NC(=O)OC(C)(C)C(F)(F)F)c4ccccc4)C[C@@](O)([C@@H](OC(=O)c4cccc(F)c4)[C@H]21)C3(C)C
[out] 3940

[in] Provide AUC(0-inf) value for the following compound: CC(=O)O[C@@]12CO[C@@H]1C[C@H](O)[C@@]1(C)C(=O)[C@H](O)C3=C(C)[C@@H](OC(=O)[C@H](O)[C@@H](NC(=O)OC(C)(C)C(F)F)c4ccccc4)C[C@@](O)([C@@H](OC(=O)c4cccc(F)c4)[C@H]21)C3(C)C
[out] 1990

---

- test: Mean residence time in Sprague-Dawley rat at 5 mg/kg, iv by LC-MS/MS analysis
- Assay type: ADME, organism-based
- Parameters: dose 5 mg/kg, route intravenous
- condition_label: in vivo
Record form. Attribute: MRT. Fill in for each entry.
Answer with a number only, understood to be in h.

[in] Output MRT of CC(=O)O[C@@]12CO[C@@H]1C[C@H](O)[C@@]1(C)C(=O)[C@H](O)C3=C(C)[C@@H](OC(=O)[C@H](O)[C@@H](NC(=O)OC(C)(C)C)c4ccccc4)C[C@@](O)([C@@H](OC(=O)c4ccccc4)[C@H]21)C3(C)C.O.O.O [DOCETAXEL]
[out] 3.34

[in] Given CC(=O)O[C@@]12CO[C@@H]1C[C@H](O)[C@@]1(C)C(=O)[C@H](O)C3=C(C)[C@@H](OC(=O)[C@H](O)[C@@H](NC(=O)OC(C)(C)CF)c4ccccc4)C[C@@](O)([C@@H](OC(=O)c4cccc(F)c4)[C@H]21)C3(C)C , respond with its MRT.
[out] 2.3

[in] Quickly give me recorded MRT for CC(=O)O[C@@]12CO[C@@H]1C[C@H](O)[C@@]1(C)C(=O)[C@H](O)C3=C(C)[C@@H](OC(=O)[C@H](O)[C@@H](NC(=O)OC(C)(C)CF)c4ccccc4)C[C@@](O)([C@@H](OC(=O)c4ccccc4)[C@H]21)C3(C)C
[out] 5.62

[in] Identify the reported MRT for the following entry. CC(=O)O[C@@]12CO[C@@H]1C[C@H](O)[C@@]1(C)C(=O)[C@H](O)C3=C(C)[C@@H](OC(=O)[C@H](O)[C@@H](NC(=O)OC(C)(C)C(F)(F)F)c4ccccc4)C[C@@](O)([C@@H](OC(=O)c4ccccc4)[C@H]21)C3(C)C
[out] 2.32

[in] Note down MRT recorded for CC(=O)O[C@@]12CO[C@@H]1C[C@H](O)[C@@]1(C)C(=O)[C@H](O)C3=C(C)[C@@H](OC(=O)[C@H](O)[C@@H](NC(=O)OC(C)(C)C(F)F)c4ccccc4)C[C@@](O)([C@@H](OC(=O)c4cccc(F)c4)[C@H]21)C3(C)C
[out] 2.4

[in] Return the recorded MRT value; entry: CC(=O)O[C@@]12CO[C@@H]1C[C@H](O)[C@@]1(C)C(=O)[C@H](O)C3=C(C)[C@@H](OC(=O)[C@H](O)[C@@H](NC(=O)OC(C)(C)CF)c4ccc(F)cc4)C[C@@](O)([C@@H](OC(=O)c4ccccc4)[C@H]21)C3(C)C
[out] 2.13

---

- test: Cytotoxicity against human KB-0528 cells after 72 hrs by SRB assay
- Format: functional, cell-based
- condition_label: KB-0528, 72 h
recorded_endpoint: pIC50
Reminder that pIC50 is minus the log10 of a molar concentration.

[in] State, in one line, measured pIC50 of CC(=O)O[C@@]12CO[C@@H]1C[C@H](O)[C@@]1(C)C(=O)[C@H](O)C3=C(C)[C@@H](OC(=O)[C@H](O)[C@@H](NC(=O)OC(C)(C)CF)c4ccccc4)C[C@@](O)([C@@H](OC(=O)c4ccccc4)[C@H]21)C3(C)C
[out] 9.30

[in] Give the value of pIC50 reported for the following: CC(=O)O[C@@]12CO[C@@H]1C[C@H](O)[C@@]1(C)C(=O)[C@H](O)C3=C(C)[C@@H](OC(=O)[C@H](O)[C@@H](NC(=O)OC(C)(C)C(F)F)c4ccccc4)C[C@@](O)([C@@H](OC(=O)c4ccccc4)[C@H]21)C3(C)C
[out] 9.55

---

- test: Half life in human liver microsomes
- Assay type: ADME, Microsome
- condition_label: liver microsomes
recorded_endpoint: half-life (h)
The reply should be a number in h, with the unit left off.

[in] Specify half-life for CC(=O)O[C@@]12CO[C@@H]1C[C@H](O)[C@@]1(C)C(=O)[C@H](O)C3=C(C)[C@@H](OC(=O)[C@H](O)[C@@H](NC(=O)OC(C)(C)C(F)(F)F)c4ccc(F)cc4)C[C@@](O)([C@@H](OC(=O)c4ccccc4)[C@H]21)C3(C)C and stop.
[out] 57.8

---

Assign IC50 to each entry below.
- test: Cytotoxicity against human KB-0528 cells after 72 hrs by SRB assay
- Format: functional, cell-based
- condition_label: KB-0528, 72 h

[in] Note IC50 for the compound shown: CC(=O)O[C@@]12CO[C@@H]1C[C@H](O)[C@@]1(C)C(=O)[C@H](O)C3=C(C)[C@@H](OC(=O)[C@H](O)[C@@H](NC(=O)OC(C)(C)C(F)F)c4ccc(F)cc4)C[C@@](O)([C@@H](OC(=O)c4ccccc4)[C@H]21)C3(C)C
[out] 0.397 nM

[in] Report IC50, nothing else, for this compound: CC(=O)O[C@@]12CO[C@@H]1C[C@H](O)[C@@]1(C)C(=O)[C@H](O)C3=C(C)[C@@H](OC(=O)[C@H](O)[C@@H](NC(=O)OC(C)(C)C(F)(F)F)c4ccccc4)C[C@@](O)([C@@H](OC(=O)c4ccccc4)[C@H]21)C3(C)C
[out] 0.0834 nM

[in] Answer with reported IC50 of CC(=O)O[C@@]12CO[C@@H]1C[C@H](O)[C@@]1(C)C(=O)[C@H](O)C3=C(C)[C@@H](OC(=O)[C@H](O)[C@@H](NC(=O)OC(C)(C)CF)c4ccc(F)cc4)C[C@@](O)([C@@H](OC(=O)c4ccccc4)[C@H]21)C3(C)C
[out] 0.915 nM
